System: RPMI-8226 cells
Assay: Antiproliferation assay (XTT)
Assay type: cell-based
Details: 14-day incubation, read-out: Cytotoxicity EC50
Procedure: Antiproliferation assay. Proliferation inhibition assays for suspension blood cancer cells were performed using an XTT assay kit (Roche). Proliferation inhibition assays for solid tumor cell lines MCF-7, MDA-MB-231, Panc1, Panc28 were performed using an MTT assay (Sigma). The antiproliferation EC50 values were determined using Prism 5 and the reported results were the mean values of at least three independent experiments. […]
Measured quantity: EC50

In: Read off the recorded EC50 for CC(C)N(CCCNC(=O)Nc1ccc(C(C)(C)C)cc1)C[C@H]1O[C@@H](n2ccc3c(N)ncnc32)[C@H](O)[C@@H]1O [EPZ4777, reference compound]
Out: > 50 µM

====

Target: AF9-DOT1L interaction (Homo sapiens, UniProt P42568)
Construct: cDNA for human AF9 AHD domain (475-568) and ENL AHD domain (489-559) was synthesized; made in house; host or cells: E. coli BL21(DE3)
Sequence (P42568 475-568): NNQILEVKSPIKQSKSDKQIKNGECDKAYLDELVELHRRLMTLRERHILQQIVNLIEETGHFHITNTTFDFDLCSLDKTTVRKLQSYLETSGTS
Assay: Alpha assay, AF9 AHD-DOT1L peptide interaction
Assay type: binding
Conditions: read-out: IC50, inhibition of AF9-DOT1L interaction
Measured quantity: pIC50
Remember the convention: pIC50 equals -log10 of concentration in molar.

In: Read off the recorded pIC50 for CC(C)(C)c1ccc(-n2cc(C(=O)Nc3ccncc3)nc2-c2ccccc2)cc1
Out: 4.64

In: Read off the recorded pIC50 for CC(C)c1nc(C(=O)NC2CCNCC2)cn1-c1ccc(C(C)(C)C)cc1
Out: 5.11

In: Read off the recorded pIC50 for CC(C)(C)c1ccc(-n2cc(C(=O)NCC3CCNCC3)nc2-c2ccccc2)cc1
Out: 4.53

In: Read off the recorded pIC50 for CC(C)(C)c1ccc(-n2cc(C(=O)NC3CCNCC3)nc2C2CCCCC2)cc1
Out: 4.61

In: Read off the recorded pIC50 for CC(C)(C)c1ccc(-n2cc(C(=O)NC3CCNCC3)nc2-c2ccccc2)cc1
Out: 5.46

====

system: U266 cells; assay: Antiproliferation assay (XTT); type: cell-based; details: 14-day incubation, read-out: Cytotoxicity EC50
pEC50: −log10 of the molar value.
Measured quantity: pEC50

In: Read off the recorded pEC50 for CC(C)N(CCCNC(=O)Nc1ccc(C(C)(C)C)cc1)C[C@H]1O[C@@H](n2ccc3c(N)ncnc32)[C@H](O)[C@@H]1O [EPZ4777, reference compound]
Out: < 4.30

====

tested on: Molm-13 cells; experiment: Antiproliferation assay (XTT); assay type: cell-based; settings: 14-day incubation, read-out: Cytotoxicity EC50
Measured quantity: pEC50
Remember the convention: pEC50 equals -log10 of concentration in molar.

In: Read off the recorded pEC50 for CC(C)N(CCCNC(=O)Nc1ccc(C(C)(C)C)cc1)C[C@H]1O[C@@H](n2ccc3c(N)ncnc32)[C@H](O)[C@@H]1O [EPZ4777, reference compound]
Out: 5.92

====

test system: MV4;11 cells; experiment: Antiproliferation assay (XTT); format: cell-based; conditions: 14-day incubation, read-out: Cytotoxicity EC50
Measured quantity: EC50 (nM)
Numbers only here, please. The scale is nM.

In: Determine reported EC50 for CC(C)N(CCCNC(=O)Nc1ccc(C(C)(C)C)cc1)C[C@H]1O[C@@H](n2ccc3c(N)ncnc32)[C@H](O)[C@@H]1O [EPZ4777, reference compound] ; test system: MV4;11 cells.
Out: 1100
